Where these numbers come from: patent US20250163164A1

Biological target: T1, human interleukin 13 receptor subunit alpha 2 (IL-13RA2) (human, UniProt Q14627 27-380)
T1 construct: whole, on cells; also called IL-13Rα2; CD213A2
T1 sequence (looked up): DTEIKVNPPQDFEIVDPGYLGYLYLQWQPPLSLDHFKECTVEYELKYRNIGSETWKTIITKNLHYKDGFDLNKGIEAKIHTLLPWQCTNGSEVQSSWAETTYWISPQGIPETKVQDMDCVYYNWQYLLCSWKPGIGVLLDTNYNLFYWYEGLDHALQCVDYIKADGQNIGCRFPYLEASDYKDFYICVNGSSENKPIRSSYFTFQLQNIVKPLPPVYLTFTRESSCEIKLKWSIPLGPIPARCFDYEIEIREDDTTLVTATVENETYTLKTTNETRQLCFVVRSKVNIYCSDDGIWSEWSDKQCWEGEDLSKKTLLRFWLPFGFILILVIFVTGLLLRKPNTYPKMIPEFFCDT
Experiment: FACS on A375 cells
pEC50: −log10 of the molar value.
Each entry below carries its reported pEC50.
measurementKind: pEC50

binder: 57F8H3F1 H1L4 hIgG1 (antibody, V domains shown, humanized, hIgG1) VH: QVQLVQSGAEVKKPGASVKVSCKASGYTFTNYWMNWVRQAPGQGLEWMGRIDAYETETHYNQKFRDRVTMTRDTSTSTVYMELSSLRSEDTAVYYCARGYGHYYGVDYWGQGTLVTVSS VL: DIVLTQSPSSLSASVGDRATITCRASENVGNFGISFVNWFQQKPGKPPKLLIYAASNLGSGDPARFSGSGSGTDFTLTISSLQPEDFATYFCQQSKGVPWTFGGGTKLEIK
val: 9.03
--
binder: 72B4H4 H3L3 hIgG1 (antibody, V domains shown, humanized, hIgG1) VH: QVQLVQSGAEVVKPGASVKLSCKASGYTFTNYWMNWVKQAPGQGLEWIGRIDAYAGETHYNQKFKDRATLTVDKSTSTVYMELSSLRSEDTAVYYCARGYGDAYGMDHWGQGTLVTVSS VL: DIQLTQSPSSLSASVGDRVTITCRASESVDNYGISFMNWFQQKPGKAPKLLIYAASRQGSGDPARFSGSGSGTDFTLTISSLQPEDFATYFCQQSKEVPWTFGGGTKVEIK
val: 8.78
--
binder: xi61H8C1 hIgG1 (antibody, V domains shown) VH: QVQLQQSGAELARPGASVMLSCKASGYTFTSYWTQWIKQRPGQGLEGIGAIYPGDDDTSYNQKFKGKATLTADKSSSTAYMQLNSLTSEDSAVYYCARGATLLRPFPYWGQGTLVTVSA VL: DIVMTQSHKFMSTSVGDRVSITCKASQDVSTAVAWYQQKPGQSPKLLIYSASYRYTGVPDRFTGSGSGTDFTFTISSVQAEDLAVYSCQQHYSIPPTFGGGTKLEIK
val: 9.80
--
binder: 72B4H4 H4L4 hIgG1 (antibody, V domains shown, humanized, hIgG1) VH: QVQLVQSGAEVVKPGASVKLSCKASGYTFTNYWMNWVKQRPGQGLEWIGRIDAYAGETHYNQKFKDRAILTVDKSTSTAYMELRSLRSEDTAVYYCARGYGDAYGMDHWGQGTLVTVSS VL: DIVLTQSPSSLSASVGDRATITCRASESVDNYGISFMNWFQQKPGKPPKLLIYAASRQGSGDPARFSGSGSGTDFTLTISSLQPEDFATYFCQQSKEVPWTFGGGTKLEIK
val: 8.93
--
binder: 57F8H3F1 H1L2 hIgG1 (antibody, V domains shown, humanized, hIgG1) VH: QVQLVQSGAEVKKPGASVKVSCKASGYTFTNYWMNWVRQAPGQGLEWMGRIDAYETETHYNQKFRDRVTMTRDTSTSTVYMELSSLRSEDTAVYYCARGYGHYYGVDYWGQGTLVTVSS VL: DIQMTQSPSSLSASVGDRVTITCRASENVGNFGISFVNWFQQKPGKAPKLLIYAASNLGSGDPSRFSGSGSGTDFTLTISSLQPEDFATYFCQQSKGVPWTFGQGTKVEIK
val: 9.11
--
binder: 57F8H3F1 H1L1 hIgG1 (antibody, V domains shown, humanized, hIgG1) VH: QVQLVQSGAEVKKPGASVKVSCKASGYTFTNYWMNWVRQAPGQGLEWMGRIDAYETETHYNQKFRDRVTMTRDTSTSTVYMELSSLRSEDTAVYYCARGYGHYYGVDYWGQGTLVTVSS VL: DIQMTQSPSSLSASVGDRVTITCRASENVGNFGISFVNWYQQKPGKAPKLLIYAASNLGSGVPSRFSGSGSGTDFTLTISSLQPEDFATYYCQQSKGVPWTFGQGTKVEIK
val: 9.20
--
binder: 57F8H3F1 H4L2 hIgG1 (antibody, V domains shown, humanized, hIgG1) VH: QVQLVQSGAEVVKPGASVKLSCKASGYTFTNYWMNWVKQRPGQGLEWIGRIDAYETETHYNQKFRDRAILTVDKSTSTAYMELRSLRSEDTAVYYCARGYGHYYGVDYWGQGTLVTVSS VL: DIQMTQSPSSLSASVGDRVTITCRASENVGNFGISFVNWFQQKPGKAPKLLIYAASNLGSGDPSRFSGSGSGTDFTLTISSLQPEDFATYFCQQSKGVPWTFGQGTKVEIK
val: 9.12
--
binder: 61H8C1 H4L2 hIgG1 (antibody, V domains shown, humanized, hIgG1) VH: QVQLVQSGAEVAKPGASVKLSCKASGYTFTSYWTQWIKQAPGQGLEGIGAIYPGDDDTSYNQKFKGKATLTADKSTSTAYMQLSSLRSEDTAVYYCARGATLLRPFPYWGQGTLVTVSS VL: DIQMTQSPSSLSTSVGDRVTITCKASQDVSTAVAWYQQKPGKSPKLLIYSASYRYTGVPSRFSGSGSGTDFTLTISSLQPEDFATYSCQQHYSIPPTFGQGTKLEIK
val: 9.85
--
binder: 61H8C1 H4L1 hIgG1 (antibody, V domains shown, humanized, hIgG1) VH: QVQLVQSGAEVAKPGASVKLSCKASGYTFTSYWTQWIKQAPGQGLEGIGAIYPGDDDTSYNQKFKGKATLTADKSTSTAYMQLSSLRSEDTAVYYCARGATLLRPFPYWGQGTLVTVSS VL: DIQMTQSPSSLSASVGDRVTITCKASQDVSTAVAWYQQKPGKAPKLLIYSASYRYTGVPSRFSGSGSGTDFTLTISSLQPEDFATYYCQQHYSIPPTFGQGTKLEIK
val: 9.77
--
binder: 72B4H4 H3L4 hIgG1 (antibody, V domains shown, humanized, hIgG1) VH: QVQLVQSGAEVVKPGASVKLSCKASGYTFTNYWMNWVKQAPGQGLEWIGRIDAYAGETHYNQKFKDRATLTVDKSTSTVYMELSSLRSEDTAVYYCARGYGDAYGMDHWGQGTLVTVSS VL: DIVLTQSPSSLSASVGDRATITCRASESVDNYGISFMNWFQQKPGKPPKLLIYAASRQGSGDPARFSGSGSGTDFTLTISSLQPEDFATYFCQQSKEVPWTFGGGTKLEIK
val: 8.87
